Assay: gradient 5% acetonitrile 3 min, to 50% in 2 min, to 85% in 15 min, held 3 min, 100 µL/min
Settings: column: Zorbax Extend-C18 2.1 x 50 mm; eluents: water / acetonitrile, 0.1% formic acid
I'd appreciate it if you could label each record using RP-LC retention time and these ranges: bin A (below 700 s), bin B (700 s to below 800 s), bin C (800 s or more)

Worked examples follow.
molecule	cat
CCC(=O)Nc1ccc(-n2cnc(C(=O)NC3CCCCCC3)c2)nc1	bin B
CCCN(C(C)=O)c1nc(-c2ccc(C)cc2)cs1	bin C
NC(=O)CCC(NC(=O)Cc1ccccc1)C(=O)O (stereo not given)	bin A
CCN1c2ccccc2C(=O)NC12CCN(C(=O)c1ccc(F)cc1)CC2	bin B
Cc1cccc(-c2ncccc2CNS(=O)(=O)c2ccc(F)c(F)c2)c1	bin B
CCOCCCNC(=O)N1CCC(c2noc(-c3cnccn3)n2)C1 (stereo not given)	bin A
CCNc1cc(N2CCC(CCC(=O)NCc3ccc(C)cc3)CC2)ncn1	bin A
COc1ccc(-c2nc(-c3ccc4c(c3)oc(=O)n4C(C)C)no2)cc1F	bin C
COCCOc1ccc(N2CCN(CCn3ncc4c3nc(N)n3nc(-c5ccco5)nc43)CC2)cc1	bin A
CCn1nnc2ccc(-c3noc(-c4ccc(OC)cc4)n3)cc21	bin C

Consider CN(C)C(CNS(=O)(=O)c1ccc(Cl)cc1)c1ccccc1 (stereo not given) . To which RP-LC retention time class does it belong?
bin A

Consider CC(C)N1C(=O)c2cccnc2Sc2cc(NC(=O)c3ccc(F)c(F)c3)ccc21 . To which RP-LC retention time class does it belong?
bin C

Consider O=c1oc2cc(S(=O)(=O)NCCO)ccc2c2ccc(S(=O)(=O)NCCO)cc12 . To which RP-LC retention time class does it belong?
bin A

Consider CCCn1cc(C(=O)NCCC2=CCCCC2)c2nn(-c3ccccc3)c(=O)c-2c1 . To which RP-LC retention time class does it belong?
bin C

Consider OC(CN1CCCCC1)c1ccc(/C=C/c2ccc(Cl)cc2)cc1 (stereo not given) . To which RP-LC retention time class does it belong?
bin B

Consider CCc1ccc(NC(=O)N2CCN(CCn3c(CC)nc4cccnc43)CC2)cc1 . To which RP-LC retention time class does it belong?
bin A

Consider COc1ccc(NC(=O)Cn2nc3cc(-c4ccc(OC)cc4)nc(C)n3c2=O)cc1 . To which RP-LC retention time class does it belong?
bin C
